Quantity Name: melting point

The cases that follow already have their melting point on record.
S=c1cc(-c2ccccc2)c(S)n[nH]1 :: 146 to 148 °C
CCCCCCCCC(=CC=C(O)C(=O)OCC)C(=O)OCC :: 58 °C
Cn1ccnc1S(=O)c1ccccc1Cl (configuration not stated) :: 132 to 134 °C

Request: # return recorded melting point for entry OCc1cc(Cl)c(Cl)c(Cl)n1
Result: 82 to 83 °C

Request: Provide only the value of recorded melting point for CCCc1c(SC(=O)N(C)C)ccc2c(=O)cc(C(=O)OCC)oc12
Result: 113 to 114 °C

Request: Indicate its recorded melting point; the molecule in question is c1ccc(OCn2c(Nc3cnon3)nc3ccccc32)cc1
Result: 171 to 173 °C

Request: Dear colleague, please send me the reported melting point for COC(=O)c1cccc(C)c1OC(=S)N(C)C when you can.
Result: 94 to 96 °C

Request: Return reported melting point. Input molecule: FC(F)(F)c1ccc(-c2cc(C3CC3)cc(Cl)n2)cc1
Result: 89 to 93 °C

Request: Specify reported melting point for the molecule shown: CCn1ccc(C(=O)c2cc(C(C)(C)C)c(O)c(C(C)(C)C)c2)c1
Result: 73 to 75 °C

###

Quantity Name: melting point

CCc1nn(CO)c(CC)c1Cc1cc(Cl)cc(Cl)c1 :: 117 to 118 °C

Request: Look up and state reported melting point for COC(=O)Cc1ccc(OS(=O)(=O)C(F)(F)F)c(NC(C)=O)c1
Result: 68.5 to 70 °C

Request: Return value of melting point for input COc1ccc2c(c1)Oc1c(ccc(OC)c1C(OC)OC)C2(C)C , no commentary.
Result: 60 to 62 °C

Request: Give the reported value of melting point for this record: N#Cc1cc(Br)cc2ccc(O)c(Cl)c12
Result: 148 to 150 °C

Request: Fill in melting point for record COc1ccc(Cn2c(=O)cc(C)c3cnc(N4CCC[C@H]4CO)nc32)cc1Cl
Result: 150 to 153 °C

Request: Given O=C(C#Cc1cccc(OCc2ccccc2)c1)c1ccccc1 , respond with its melting point.
Result: 75 to 77 °C

###

Quantity Name: melting point

Request: Give the value of melting point reported for the following: O=C1CC(c2cccc(-n3cncn3)c2)=Nc2ccc(C#Cc3ccc(F)cc3)cc2N1
Result: 217 to 218 °C

Request: Read the entry CC(C)(C)N(NC(=O)c1ccccn1)C(=O)c1ccc(Cl)c(Cl)c1 and write its reported melting point.
Result: 175 to 178 °C

Request: Determine from records and report melting point for C=CCc1cc2c(c(CC=C)c1OC1CCCCO1)CCC(=O)N2 (stereo not given)
Result: 119 to 120 °C

Request: Look up and report measured melting point for this entry: Cc1cc(O)c(S(=O)Cc2ccccc2)c(=O)o1 (stereo not given)
Result: 150 to 153 °C

Request: Return melting point (reported value) for this compound: COc1cc(C(=O)CS(C)=O)c(N)c(OC)c1OC (stereo not given)
Result: 102 to 104 °C

Request: Please supply the value of reported melting point for the item COC(=O)COc1ccc(OC)cc1C(=O)OC
Result: 66 to 68.5 °C

###

Quantity Name: melting point

Sample answers from the record:
CCSC(NC(C)=O)C(=O)NCc1ccccc1 (stereo unspecified) :: 146 to 148 °C
Oc1ccc(Oc2ccc(I)cn2)cc1 :: 110 °C

Request: Provide one value: measured melting point of Nc1ncnc2c1c(-c1ccc(Oc3ccccc3)cc1)cn2C1COCC1O (stereo unspecified)
Result: 234 to 236 °C

Request: For Nc1ccc(OCCCCOc2ccc(N)cc2[N+](=O)[O-])c([N+](=O)[O-])c1 , write its melting point.
Result: 194 to 196 °C

Request: Report melting point for COc1ccc(-c2nc(C#N)c[nH]2)cc1
Result: 219 to 220 °C

Request: Specify melting point for CC(C)OC(=O)N(O)CCN1CCCCC1 and stop.
Result: 78 to 79 °C

Request: Give the reported melting point for this compound. CCCN(CCC)c1c(CC)nn2c(-c3cnc(N(C)C)cc3C)cccc12
Result: 98.5 to 100 °C

Request: # return recorded melting point for entry CCc1nn2c(N)c3c(nc2c1S(=O)(=O)c1ccccc1)CCC3
Result: > 230 °C

Request: Give reported melting point value for COc1cc(C2C3=C(COC3=O)N(C)c3cc4c(cc32)OCO4)cc(OC)c1O (stereo unspecified)
Result: 250 °C

Request: Supply measured melting point of CC(C)Oc1ccc2nc(COc3ccc(CC4SC(=O)NC4=O)cc3)n(C)c2n1 (stereo unspecified) in your reply.
Result: 210 to 212 °C

Request: Indicate the recorded melting point value for this compound: CC(C)Sc1sc(-c2cc[nH]n2)c2c1C(=O)CC(C)(C)C2
Result: 195 to 198 °C

###

We begin with a simple list: items and their reported melting point.

Here's what some known entries look like.
O=C(O)c1cn(-c2ccncc2F)c2nc(Cl)c(F)cc2c1=O :: 228 to 230 °C
O=[N+]([O-])c1ccc(S(=O)C2CC2)cc1 (racemic) :: 104 to 106 °C
CC(C)(C)c1ccc(C(=O)Nc2cn3cc(-n4ccnc4)ccc3n2)cc1 :: 289 to 291 °C
COc1ccc(-c2cccc3c2COC3=O)c2c1OCCO2 :: 158 to 160 °C
CC(=O)SCCC(=O)N1c2ccc(C)cc2CCC1C(=O)O (stereo not given) :: 118 to 120 °C

Request: State, in one line, measured melting point of C=C1C(c2ccccc2)=C(c2ccc(S(C)(=O)=O)cc2)C1(Cl)Cl
Result: 124 to 126 °C

Request: Given CS(=O)(=O)N1CCN([C@@H](CNC(=O)c2ccc(OCc3cccc4ccccc34)cc2)C(=O)NO)CC1 , respond with its melting point.
Result: 170 °C

Request: Quick one: give measured melting point for O=C1NCCc2ccc(OCCCCN3CCN(c4cccc(Cl)c4Cl)CC3)cc2N1
Result: 185 to 186 °C

Request: Specify melting point for CSC(=NC(=O)c1cccc(Br)c1)NC(=O)c1ccccc1 and stop.
Result: 145 to 146 °C

Request: Return the recorded melting point value; entry: CC(C)(C)c1cc(-c2nn(CC#N)c3ncccc23)cc(C(C)(C)C)c1O
Result: 141 to 143 °C

###

Each record here notes measured melting point.

CC1(C)Oc2ccc(OC(F)(F)F)cc2[C@@H](NC(=O)c2ccccc2[N+](=O)[O-])[C@@H]1O :: 189 to 190 °C
Cn1ncnc1COc1nn2c(-c3ccccc3)nnc2c(Cl)c1N1CCCC1 :: 174 to 176 °C
CC(=O)CCc1ccc2c(c1)Cc1cc(N)ccc1-2 :: 116 to 117 °C
Cc1cn2cccc(OCc3c(Cl)ccc(S(=O)(=O)N4CCC[C@H]4C(=O)O)c3Cl)c2n1 :: 135 °C
COC(=O)c1ccc(NC=O)nc1 :: 218 to 220 °C

Request: Name the recorded melting point of the compound listed here: Cc1cc(C)c2cccc(OCc3c(Cl)ccc(S(=O)(=O)N4CCC[C@H]4C(=O)NCCCN(C)C(=O)c4ccc(C=NN)cc4)c3Cl)c2n1
Result: 158 °C

Request: Return the recorded melting point value; entry: CC(C)=NN=C1NCC(=O)N1
Result: 182 to 187 °C

Request: Answer with the recorded melting point of COc1cc2c(Nc3ccc4c(c3)NCC4)c(C#N)cnc2cc1OCCCc1ccncc1 only.
Result: 100 to 105 °C

Request: Tell me its melting point given Nc1ccc(S(F)(F)(F)(F)F)cc1 as the entry.
Result: 63 to 65 °C

Request: Check the records and state melting point for CCOC(=O)c1[nH]cnc1C(F)(F)F
Result: 184 to 186 °C

Request: Annotate the compound CC(C)C1=Nc2ccccc2N(C)C(=O)C1N (configuration not stated) with its measured melting point.
Result: 167 to 168 °C

Request: Read the entry O=C1Nc2cccc(-c3cccc(C(F)(F)F)c3)c2/C1=C/c1ccc[nH]1 and write its reported melting point.
Result: 197 to 198 °C

Request: Specify measured melting point for O=C(NC(=O)c1ccc(F)cc1Cl)Nc1ccc(OC(F)(F)C(F)Cl)c(Cl)c1 (configuration not stated) .
Result: 186 °C

Request: Provide measured melting point value, entry: O=C(/C=C/c1ccncc1)N[C@H]1c2ccccc2C[C@H]1O
Result: 205 to 207 °C

Request: // Input: C=Cc1ccc(OC(=O)c2ccccc2)cc1 . Output its melting point only.
Result: 75 to 76 °C

Request: Please supply the value of reported melting point for the item CN(N)c1nc2ccccc2o1
Result: 128 to 131 °C

Request: Item CC(C)c1cccc(C(C)C)c1NC(=O)C(N)Cc1c[nH]c2ccccc12 (configuration not stated) : provide melting point
Result: 185 to 187 °C

Request: Quote melting point reported for OC[C@@H]1CCc2ccc3ncccc3c2O1 please.
Result: 128 °C

Request: Item CN1C(=O)OC(C)(C)c2cc(-c3cc(F)cc(Br)c3)ccc21 : provide melting point
Result: 157 to 158 °C

Request: Indicate the recorded melting point value for this compound: CCCOc1ccccc1C1=NC(=O)C2=NC(C)=NC2=N1
Result: 264 to 265 °C

Request: # return recorded melting point for input CN1Cc2c(cc(CN3CCOCC3)n2C)C(c2ccccc2)C1 (configuration not stated)
Result: 96 to 97 °C

Request: Provide one value: measured melting point of CC(C)ON=Cc1cc(-n2c(=O)cc(C(F)(F)F)[nH]c2=O)ccc1Cl
Result: 191 to 193 °C

Source: a melting point compilation (Tetko et al.; mined from patent text by program, amines drawn as free bases though some values may be those of a salt)
